assay: Percent change from control value for Vmax at 100 uM of the compound.
# Lookup of reported Delta Vmax keyed by entry
I only need the number, in %, no unit after it.

Consider the following illustrative entries.
> print(dat)
                                   compound  unit.tag  numeric.readout
1  CCN(CC)CCNC(=O)c1ccc(NS(C)(=O)=O)cc1 [SEMATILIDE]         %                0
2  CCN(CC)CCN(C(=O)c1ccc(NS(C)(=O)=O)cc1)c1cccc2ccccc12.Cl         %              -42
3  CCN(CC)CCN(C(=O)c1ccc(NS(C)(=O)=O)cc1)c1ccccc1.Cl         %              -39

In the following, a different compound is considered.
Look up Delta Vmax for this compound: CCN(CC)CC(NC(=O)c1ccc(NS(C)(=O)=O)cc1)c1ccccc1.Cl (centres undefined)
-76

###

species: Canis familiaris; assay: Duration of action potential was determined in vitro in Canine Purkinje fibers at 1 uM concentration.; type: functional, Canis lupus familiaris, Purkinje fiber
Assign T to entries whose Delta APD95 meets or exceeds 30%; assign F to the rest.

Solved cases (5 shown):
> print(dat)
                                   molecule  category
1    CCN(CC)CC(=O)Nc1c(C)cccc1C [LIDOCAINE]         F
2  CCN(CC)CCN(C(=O)c1ccc(NS(C)(=O)=O)cc1)c1ccc(Cl)cc1         T
3  CCN(CC)CCN(C(=O)c1ccc(NS(C)(=O)=O)cc1)c1c(C)cccc1C.Cl         F
4  CCN(CC)CCN(C(=O)c1ccc(NS(C)(=O)=O)cc1)c1ccc(OC)cc1.O=C(O)/C=C/C(=O)O         T
5  CCN(CC)CCN(C(=O)c1ccc(NS(C)(=O)=O)cc1)c1c(C(C)C)cccc1C(C)C.Cl         F

Threshold query (Delta APD95 >= 30%) on C=C[C@H]1CN2CC[C@H]1C[C@@H]2[C@@H](O)c1ccnc2ccc(OC)cc12 [QUINIDINE]
F

Param item: `CCc1ccc(N(CCN(CC)CC)C(=O)c2ccc(NS(C)(=O)=O)cc2)cc1.Cl`
T

Param item: `CCN(CC)CCN(C(=O)c1ccc(NS(C)(=O)=O)cc1)c1ccccc1.Cl`
F

###

assay: Percent change from control value for Vmax at 30 uM of the compound.
Assign t to entries whose Delta Vmax meets or exceeds -20%; assign f to the rest.

Solved cases (5 shown):
> print(dat)
                                   compound  category
1  CCN(CC)CCN(C(=O)c1ccc(NS(C)(=O)=O)cc1)c1c(C)cccc1C.Cl         t
2  CCN(CC)CC(NC(=O)c1ccc(NS(C)(=O)=O)cc1)c1ccccc1.Cl (stereo not given)         f
3  CCN(CC)CCN(C(=O)c1ccc(NS(C)(=O)=O)cc1)c1cccc2ccccc12.Cl         t
4  CCc1ccc(N(CCN(CC)CC)C(=O)c2ccc(NS(C)(=O)=O)cc2)cc1.Cl         t
5  C=C[C@H]1CN2CC[C@H]1C[C@@H]2[C@@H](O)c1ccnc2ccc(OC)cc12 [QUINIDINE]         f

Threshold query (Delta Vmax >= -20%) on CCN(CC)C(CNC(=O)c1ccc(NS(C)(=O)=O)cc1)c1ccccc1 (stereo not given)
t

Param item: CCN(CC)C(CNC(=O)c1ccc(NS(C)(=O)=O)cc1)c1cccc2ccccc12 (stereo not given)
t

Param item: `CCN(CC)CCN(C(=O)c1ccc(NS(C)(=O)=O)cc1)c1ccc(OC)cc1.O=C(O)/C=C/C(=O)O`
t

###

# Lookup of reported Delta Vmax keyed by entry
test: Percent change from control value for Vmax at 0.1 uM of the compound.
I only need the number, in %, no unit after it.

Consider the following illustrative entries.
> print(dat)
                                   compound  assay.metric  numeric.readout
1  CCN(CC)CCN(C(=O)c1ccc(NS(C)(=O)=O)cc1)c1ccccc1.Cl    Delta Vmax               -4
2  CCN(CC)C(CNC(=O)c1ccc(NS(C)(=O)=O)cc1)c1ccccc1 (stereo not drawn)    Delta Vmax               -4
3  CCN(CC)CCNC(=O)c1ccc(NS(C)(=O)=O)cc1 [SEMATILIDE]    Delta Vmax                2
4  CCN(CC)CC(NC(=O)c1ccc(NS(C)(=O)=O)cc1)c1cccc2ccccc12 (stereo not drawn)    Delta Vmax               -3
5  O=C(NCC1CCCCN1)c1cc(OCC(F)(F)F)ccc1OCC(F)(F)F (stereo not drawn) [FLECAINIDE]    Delta Vmax                2

Look up Delta Vmax for this compound: `CCN(CC)CCN(C(=O)c1ccc(NS(C)(=O)=O)cc1)c1ccc(Cl)cc1`
3

###

species: Canis familiaris; experiment: Duration of action potential in vitro against Canine Purkinje fibers, at 10 uM concentration.; format: functional, Canis lupus familiaris, Purkinje fiber
Assay metric: Delta APD95 (%)
I only need the number, in %, no unit after it.

> print(dat)
                                   compound  assay.metric  numeric.readout
1  CCN(CC)C(CNC(=O)c1ccc(NS(C)(=O)=O)cc1)c1ccccc1 (centres undefined)   Delta APD95               46
2  CCN(CC)CCNC(=O)c1ccc(NS(C)(=O)=O)cc1 [SEMATILIDE]   Delta APD95               33
3  CCN(CC)CC(NC(=O)c1ccc(NS(C)(=O)=O)cc1)c1cccc2ccccc12 (centres undefined)   Delta APD95              -14

In the following, a different compound is considered.
Look up Delta APD95 for this compound: CCN(CC)C(CNC(=O)c1ccc(NS(C)(=O)=O)cc1)c1cccc2ccccc12 (centres undefined)
34

###

test: Percent change from control value for Vmax at 10 uM of the compound.
# Lookup of reported Delta Vmax keyed by entry
I only need the number, in %, no unit after it.

> print(dat)
                                   compound  assay.metric  numeric.readout
1  CCN(CC)CCN(C(=O)c1ccc(NS(C)(=O)=O)cc1)c1c(C(C)C)cccc1C(C)C.Cl    Delta Vmax              -11
2  CCc1ccc(N(CCN(CC)CC)C(=O)c2ccc(NS(C)(=O)=O)cc2)cc1.Cl    Delta Vmax                4

Look up Delta Vmax for this compound: `CCN(CC)CCN(C(=O)c1ccc(NS(C)(=O)=O)cc1)c1cccc2ccccc12.Cl`
-13

Param item: `CCN(CC)CC(=O)Nc1c(C)cccc1C`
1

Param item: `CCN(CC)CCN(C(=O)c1ccc(NS(C)(=O)=O)cc1)c1c(C)cccc1C.Cl`
-3

Param item: `CCN(CC)CCN(C(=O)c1ccc(NS(C)(=O)=O)cc1)c1ccc(OC)cc1.O=C(O)/C=C/C(=O)O`
-3

Param item: O=C(NCC1CCCCN1)c1cc(OCC(F)(F)F)ccc1OCC(F)(F)F (stereo not drawn) [FLECAINIDE]
-30

###

test: Percent change from control value for Vmax at 1 uM of the compound.
# Lookup of reported Delta Vmax keyed by entry
I only need the number, in %, no unit after it.

> print(dat)
                                   molecule  unit.tag  numeric.readout
1  CCN(CC)CCN(C(=O)c1ccc(NS(C)(=O)=O)cc1)c1c(C(C)C)cccc1C(C)C.Cl         %                1

Look up Delta Vmax for this molecule: `CCc1ccc(N(CCN(CC)CC)C(=O)c2ccc(NS(C)(=O)=O)cc2)cc1.Cl`
8

Param item: O=C(NCC1CCCCN1)c1cc(OCC(F)(F)F)ccc1OCC(F)(F)F (stereo not given) [FLECAINIDE]
-6

Param item: CCN(CC)CC(NC(=O)c1ccc(NS(C)(=O)=O)cc1)c1cccc2ccccc12 (stereo not given)
-20

Param item: `CCN(CC)CC(=O)Nc1c(C)cccc1C`
2

Param item: `CCN(CC)CCN(C(=O)c1ccc(NS(C)(=O)=O)cc1)c1c(C)cccc1C.Cl`
-2

Param item: `C=C[C@H]1CN2CC[C@H]1C[C@@H]2[C@@H](O)c1ccnc2ccc(OC)cc12`
-1

Param item: `CCN(CC)CCN(C(=O)c1ccc(NS(C)(=O)=O)cc1)c1ccc(OC)cc1.O=C(O)/C=C/C(=O)O`
-3

Param item: CCN(CC)C(CNC(=O)c1ccc(NS(C)(=O)=O)cc1)c1cccc2ccccc12 (stereo not given)
-2

Param item: `CCN(CC)CCN(C(=O)c1ccc(NS(C)(=O)=O)cc1)c1ccc(Cl)cc1`
2

Param item: CCN(CC)C(CNC(=O)c1ccc(NS(C)(=O)=O)cc1)c1ccccc1 (stereo not given)
-4

Param item: `CCN(CC)CCN(C(=O)c1ccc(NS(C)(=O)=O)cc1)c1ccccc1.Cl`
-3

Param item: CCN(CC)CCNC(=O)c1ccc(NS(C)(=O)=O)cc1 [SEMATILIDE]
0

Param item: CCN(CC)CC(NC(=O)c1ccc(NS(C)(=O)=O)cc1)c1ccccc1.Cl (stereo not given)
-2

Param item: `CCN(CC)CCN(C(=O)c1ccc(NS(C)(=O)=O)cc1)c1cccc2ccccc12.Cl`
-5
